Origin of values: ChEMBL document CHEMBL1158409

- SYSTEM: Mitogen-activated protein kinase 8 (Homo sapiens)
- Sequence (P45983 whole entry): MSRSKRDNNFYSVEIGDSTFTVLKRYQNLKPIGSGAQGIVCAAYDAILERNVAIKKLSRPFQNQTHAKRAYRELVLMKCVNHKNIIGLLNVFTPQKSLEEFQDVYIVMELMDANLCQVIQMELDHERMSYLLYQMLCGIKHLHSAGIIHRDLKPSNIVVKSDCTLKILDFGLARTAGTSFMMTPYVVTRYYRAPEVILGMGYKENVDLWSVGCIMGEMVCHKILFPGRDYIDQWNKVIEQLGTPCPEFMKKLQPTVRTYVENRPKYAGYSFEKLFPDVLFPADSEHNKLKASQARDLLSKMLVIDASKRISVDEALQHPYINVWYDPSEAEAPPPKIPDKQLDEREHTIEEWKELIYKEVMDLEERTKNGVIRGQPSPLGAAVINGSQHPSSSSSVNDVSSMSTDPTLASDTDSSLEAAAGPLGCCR
- METHOD_DESCRIPTION: Inhibition of JNK1
OBSERVED_PROPERTY: pIC50
pIC50 field: float, defined as -log10 of concentration (mol/L).

Form field: reported pIC50 of "NCc1ccc(-c2cnc3[nH]cc(-c4cccc(NC(=O)Nc5ccc(C(F)(F)F)cc5F)c4)c3c2)cc1"
7.10

---

- SYSTEM: Insulin-like growth factor 1 receptor (Homo sapiens)
- METHOD_DESCRIPTION: Inhibition of IGF1-induced human IGF1R phosphorylation expressed in mouse NIH-3T3 cells treated 2 hrs prior to IGF1 challenge by DELFIA
pIC50: −log10 of the molar value.
# cutoff 6 applies to pIC50; >= gives 1.0, < gives 0.0

Solved entries:
MOLECULE: CN(C)C(=O)c1cccc(-c2cnc3[nH]cc(-c4cccc(NC(=O)Nc5ccccc5Oc5ccccc5)c4)c3c2)c1
CLASS_NAME: 1.0

MOLECULE: CN(C)C(=O)c1ccc(-c2cnc3[nH]cc(-c4cccc(NC(=O)Nc5ccccc5Oc5ccccc5)c4)c3c2)cc1
CLASS_NAME: 1.0

MOLECULE: CN(C)CCNC(=O)c1ccc(-c2cnc3[nH]cc(-c4cccc(NC(=O)Nc5ccccc5Oc5ccccc5)c4)c3c2)cc1
CLASS_NAME: 1.0

MOLECULE: CN(C)S(=O)(=O)c1ccc(-c2cnc3[nH]cc(-c4cccc(NC(=O)Nc5ccccc5Oc5ccccc5)c4)c3c2)cc1
CLASS_NAME: 0.0

MOLECULE: CN(C)C(=O)c1cccc(-c2cnc3[nH]cc(-c4cccc(NC(=O)Nc5ccccc5Nc5ccccc5)c4)c3c2)c1
CLASS_NAME: 1.0

Check the entry "CN(C)C(=O)c1cccc(-c2cnc3[nH]cc(-c4cccc(NC(=O)Nc5ccc(Oc6ccccc6)cc5)c4)c3c2)c1" : does pIC50 equal or exceed 6?
0.0

Check the entry "O=C(O)CCc1ccc(-c2cnc3[nH]cc(-c4cccc(NC(=O)Nc5ccccc5Oc5ccccc5)c4)c3c2)cc1" : does pIC50 equal or exceed 6?
0.0

Check the entry "CN(C)C(=O)c1cccc(-c2cnc3[nH]cc(-c4cccc(NC(=O)Nc5ccccc5OCc5ccccc5)c4)c3c2)c1" : does pIC50 equal or exceed 6?
1.0

---

- SYSTEM: Insulin-like growth factor 1 receptor (Homo sapiens)
- METHOD_DESCRIPTION: Inhibition of GST-tagged human IGF1R expressed in Sf9-baculovirus system
pIC50: −log10 of the molar value.
# cutoff 7 applies to pIC50; >= gives TRUE, < gives FALSE

MOLECULE: Nc1ccc(-c2cnc3[nH]cc(-c4cccc(NC(=O)Nc5ccc(C(F)(F)F)cc5F)c4)c3c2)cc1
SYSTEM: Insulin-like growth factor 1 receptor (Homo sapiens)
CLASS_NAME: FALSE

Check the entry "O=C(Nc1cccc(-c2c[nH]c3ncc(-c4ccoc4)cc23)c1)Nc1ccccc1Oc1ccccc1" : does pIC50 equal or exceed 7?
FALSE

Check the entry "CN(C)C(=O)c1ccc(-c2cnc3[nH]cc(-c4cccc(NC(=O)Nc5ccccc5Oc5ccccc5)c4)c3c2)cc1" : does pIC50 equal or exceed 7?
TRUE

---

The entries below come with measured pIC50 values attached.
- SYSTEM: Insulin-like growth factor 1 receptor (Homo sapiens, UniProt P08069)
- Sequence (P08069 31-736 limits assumed): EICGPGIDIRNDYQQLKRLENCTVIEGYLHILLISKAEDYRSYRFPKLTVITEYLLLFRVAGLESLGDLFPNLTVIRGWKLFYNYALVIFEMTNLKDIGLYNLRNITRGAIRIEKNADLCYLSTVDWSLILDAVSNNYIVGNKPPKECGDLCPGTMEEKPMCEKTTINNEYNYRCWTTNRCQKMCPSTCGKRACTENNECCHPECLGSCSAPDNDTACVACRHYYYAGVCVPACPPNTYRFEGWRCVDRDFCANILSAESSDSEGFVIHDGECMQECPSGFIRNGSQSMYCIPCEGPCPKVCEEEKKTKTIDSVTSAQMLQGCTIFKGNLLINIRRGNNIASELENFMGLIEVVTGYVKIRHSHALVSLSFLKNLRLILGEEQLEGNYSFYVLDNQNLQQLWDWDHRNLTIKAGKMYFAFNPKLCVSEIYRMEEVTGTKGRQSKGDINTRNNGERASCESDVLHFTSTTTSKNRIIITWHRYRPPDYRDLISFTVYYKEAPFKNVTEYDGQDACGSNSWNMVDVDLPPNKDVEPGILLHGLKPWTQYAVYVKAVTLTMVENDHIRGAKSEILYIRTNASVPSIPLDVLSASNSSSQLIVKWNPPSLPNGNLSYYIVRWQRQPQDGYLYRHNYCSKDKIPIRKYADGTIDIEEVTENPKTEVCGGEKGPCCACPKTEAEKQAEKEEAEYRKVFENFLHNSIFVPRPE
- Sequence (P08069 741-1367 limits assumed): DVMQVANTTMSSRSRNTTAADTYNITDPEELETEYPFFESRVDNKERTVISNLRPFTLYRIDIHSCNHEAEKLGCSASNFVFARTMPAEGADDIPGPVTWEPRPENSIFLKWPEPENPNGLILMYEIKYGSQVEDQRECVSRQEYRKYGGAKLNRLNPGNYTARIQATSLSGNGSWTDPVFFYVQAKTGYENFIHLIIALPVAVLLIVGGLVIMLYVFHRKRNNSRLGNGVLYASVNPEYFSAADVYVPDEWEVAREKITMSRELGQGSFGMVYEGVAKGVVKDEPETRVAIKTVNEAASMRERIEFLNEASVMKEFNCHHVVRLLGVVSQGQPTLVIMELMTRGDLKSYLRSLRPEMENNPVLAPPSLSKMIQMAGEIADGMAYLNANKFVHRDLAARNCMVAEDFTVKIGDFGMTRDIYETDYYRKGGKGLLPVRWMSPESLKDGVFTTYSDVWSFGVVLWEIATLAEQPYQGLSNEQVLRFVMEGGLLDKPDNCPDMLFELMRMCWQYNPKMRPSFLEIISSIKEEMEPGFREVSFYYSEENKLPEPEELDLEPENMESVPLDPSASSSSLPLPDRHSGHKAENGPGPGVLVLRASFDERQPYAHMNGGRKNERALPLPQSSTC
- METHOD_DESCRIPTION: Inhibition of GST-tagged human IGF1R expressed in Sf9-baculovirus system
pIC50 field: float, defined as -log10 of concentration (mol/L).

MOLECULE: CN(C)C(=O)c1cccc(-c2cnc3[nH]cc(-c4cccc(NC(=O)Nc5cccc(Oc6ccccc6)c5)c4)c3c2)c1
pIC50: 6.67

Form field: reported pIC50 of "O=C(Nc1ccccc1)Nc1cccc(-c2c[nH]c3ncc(-c4ccccc4)cc23)c1"
6.13

Form field: reported pIC50 of "CN1CCN(C(=O)c2ccc(-c3cnc4[nH]cc(-c5cccc(NC(=O)Nc6ccc(C(F)(F)F)cc6F)c5)c4c3)cc2)CC1"
6.54

Form field: reported pIC50 of "CN(C)S(=O)(=O)c1cccc(-c2cnc3[nH]cc(-c4cccc(NC(=O)Nc5ccccc5Oc5ccccc5)c4)c3c2)c1"
7.24
